// note: pKi values for Carbonic anhydrase 12 (Homo sapiens) were reported in different studies
pKi: −log10 of the molar value.

Solved cases (2 shown):
>  <Compound>
O=C(Cc1ccc(Cl)cc1)Oc1ccc2c(c1)OS(=O)(=O)CC2

>  <pKi>
< 5.00

$$$$
>  <Compound>
NS(=O)(=O)c1ccc2c(c1)C(=O)C(=O)N2Cc1cc(C(F)(F)F)ccc1F

>  <pKi>
< 5.00

$$$$

What pKi appears in the records for this compound with Carbonic anhydrase 12 (Homo sapiens)? O=S1(=O)CC(O)c2ccc(OCc3ccccc3)cc2O1 (racemic)
Sequence (O43570 whole entry): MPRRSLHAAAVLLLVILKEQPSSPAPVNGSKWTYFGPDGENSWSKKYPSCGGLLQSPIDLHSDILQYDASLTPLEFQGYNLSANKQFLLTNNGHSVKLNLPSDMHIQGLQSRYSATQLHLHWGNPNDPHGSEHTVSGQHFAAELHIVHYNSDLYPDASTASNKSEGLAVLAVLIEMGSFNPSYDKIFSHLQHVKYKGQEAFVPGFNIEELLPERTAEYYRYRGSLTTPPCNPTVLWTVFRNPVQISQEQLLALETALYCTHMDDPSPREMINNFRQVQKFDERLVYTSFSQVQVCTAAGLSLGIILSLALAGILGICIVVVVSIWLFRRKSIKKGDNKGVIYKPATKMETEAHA
< 5.00

What pKi appears in the records for this compound with Carbonic anhydrase 12 (Homo sapiens)? `NCCCN(CCc1ccccc1)CC(=O)N(CCc1ccccc1)CCc1ccc(S(N)(=O)=O)cc1`
7.08

What pKi appears in the records for this compound with Carbonic anhydrase 12 (Homo sapiens)? `O=Cc1c(OCc2cn(CCCOc3ccc4ccc(=O)oc4c3)nn2)ccc2ccccc12`
< 5.00

* * *

pKi: −log10 of the molar value.
// note: pKi values for Carbonic anhydrase 12 (Homo sapiens) were reported in different studies
Observed Property: pKi

Solved cases (3 shown):
>  <Compound>
NS(=O)(=O)c1ccc(CCNCCc2ccccc2)cc1

>  <pKi>
6.98

$$$$
>  <Compound>
COc1cc(S(N)(=O)=O)ccc1-c1noc(-c2ccc(C#N)cc2)n1

>  <pKi>
7.48

$$$$
>  <Compound>
NS(=O)(=O)c1ccc(CCNC(=O)CN2C(=O)NC3(CCCC3)C2=O)cc1

>  <pKi>
8.21

$$$$

I. NS(=O)(=O)c1ccc(CCNCc2ccccc2)cc1
II. CC(C)CC(=O)OC[C@H]1O[C@@H](n2cc(-c3ccc(S(N)(=O)=O)cc3)nn2)[C@H](OC(=O)CC(C)C)[C@@H](OC(=O)CC(C)C)[C@H]1OC(=O)CC(C)C
III. CC(=O)N1N=C(c2cccc(OS(N)(=O)=O)c2)CC1c1c(Cl)cccc1Cl (centres undefined)
IV. COC(=O)C(CCSC)NC(=O)Nc1cccc(S(N)(=O)=O)c1 (centres undefined)
V. COc1c(C(C)=O)c(=O)oc2ccc(Br)cc12
Which order do these items take when sorted by rising pKi? List them. Quick reminder: the answer is the labels in the order asked.
V, IV, III, II, I
(V: 6.15, IV: 6.37, III: 7.21, II: 7.63, I: 8.20)

* * *

// note: Ki values for UniProtKB O43570 were reported in different studies

Solved cases (2 shown):
>  <Structure String>
COc1cc(C[C@@H]2C[C@H]2C(=O)O)c(Br)c(Br)c1OC

>  <Ki>
> 50 µM

$$$$
>  <Structure String>
O=S1(=O)C=Cc2ccc(O)cc2O1

>  <Ki>
> 10 µM

$$$$

Next, consider the following compound.
What value of measured Ki is listed for `Cc1c(-c2nn(-c3ccccc3)cc2/C=N/O)nnn1-c1ccc(F)cc1` ?
> 100 µM

* * *

// note: Ki values for Carbonic anhydrase 12 (Homo sapiens, UniProt O43570) were reported in different studies
Observed Property: Ki (nM)

P. CC(C)(C)OC(=O)NS(=O)(=O)NCc1ccccc1
Q. Nc1nc(-c2ccc(NC(=O)c3ccc(S(N)(=O)=O)cc3)cc2)cn2c(=O)n(-c3ccccc3)nc12
R. O=C1c2ccccc2S(=O)(=O)N1CC(O)COc1ccc(Cl)cc1 (centres undefined)
S. Cn1nc(S(N)(=O)=O)sc1=N
T. CCN(CC)C(=O)Nc1cccc(S(N)(=O)=O)c1
Falling order of Ki, please. Quick reminder: the answer is the labels in the order asked.
R, P, T, Q, S
(R: 2910 nM, P: 890 nM, T: 375 nM, Q: 6 nM, S: 4 nM)

P. O=C(CN1C(=O)c2ccccc2S1(=O)=O)c1ccccc1[N+](=O)[O-]
Q. NS(=O)(=O)c1ccc(CCNS(=O)(=O)[C@@H]2O[C@H](CO)[C@H](O)[C@H](O)[C@H]2O)cc1
Just curious, which one has the larger Ki reading, P or Q ? Answer with the label corresponding to your selection.
P

* * *

// note: Ki values for Carbonic anhydrase 12 (Homo sapiens) were reported in different studies
Observed Property: Ki (nM)

Solved cases (2 shown):
>  <Compound>
NS(=O)(=O)c1ccc(CCNc2nc(NC(CO)C(=O)O)nc(NC(CO)C(=O)O)n2)cc1 (racemic)

>  <Tgt>
Carbonic anhydrase 12 (Homo sapiens)

>  <Ki / nM>
7.1

$$$$
>  <Compound>
Nc1nc(-c2ccc(S(N)(=O)=O)cc2)cn2c(=O)n(-c3ccccc3)nc12

>  <Tgt>
Carbonic anhydrase 12 (Homo sapiens)

>  <Ki / nM>
602

$$$$

1. CCOc1ccc(S(=O)(=O)N2CCCC2)cc1-c1nnc2c(n1)c(C)nn2C
2. CCCc1ccc2ccc(=O)oc2c1C(C)=O
Which gives the smaller Ki number: 1 or 2 ? Answer with the label corresponding to your selection.
2

* * *

// note: Ki values for UniProt:O43570 were reported in different studies

Solved cases (5 shown):
>  <Molecule>
CC(=O)OC[C@H]1O[C@@H](O[C@H]2[C@H](OC(C)=O)[C@@H](OC(C)=O)[C@H](NC(=S)NCCc3ccc(S(N)(=O)=O)cc3)O[C@@H]2COC(C)=O)[C@H](OC(C)=O)[C@@H](OC(C)=O)[C@H]1OC(C)=O

>  <Ki>
0.0481 µM

$$$$
>  <Molecule>
O=S1(=O)CC(O)c2ccc(O)cc2O1 (configuration not stated)

>  <Ki>
> 10 µM

$$$$
>  <Molecule>
CCOC(=O)CNc1ccc(-c2cn3c(=O)n(-c4ccccc4)nc3c(N)n2)cc1

>  <Ki>
> 100 µM

$$$$
>  <Molecule>
Cc1nn(-c2ccc(Cl)cc2)c2c1c(=O)oc1ccccc12

>  <Ki>
> 10 µM

$$$$
>  <Molecule>
COC(=O)[C@H](C)NS(=O)(=O)N[C@@H](C)C(=O)OC

>  <Ki>
> 200 µM

$$$$

What value of measured Ki is listed for `CCn1cc(S(N)(=O)=O)c2cc(NC(=O)c3cc(-c4ccccc4)nc4ccc(OC)cc34)ccc21` ?
> 100 µM

What value of measured Ki is listed for `CS(=O)(=O)Oc1ccc2c(c1)OS(=O)(=O)CC2` ?
> 10 µM

* * *

// note: Ki values for UniProt O43570 were reported in different studies

What value of measured Ki is listed for `O=C(Nc1ccc(Cl)cc1C(=O)O)c1ccc2c(c1)C(=O)N(Cc1ccccc1)C2=O` ?
> 100 µM

What value of measured Ki is listed for `CC(=O)OC[C@H]1O[C@@H]([Se]c2ccc(NC(=O)c3ccc(Cl)c(S(N)(=O)=O)c3)cc2)[C@H](OC(C)=O)[C@@H](OC(C)=O)[C@@H]1OC(C)=O` ?
> 10 µM

What value of measured Ki is listed for `C/C(=N\Nc1nc(-c2ccc(Cl)cc2)cs1)c1nnn(-c2ccc(Cl)cc2)c1C` ?
> 100 µM

* * *

pKi: −log10 of the molar value.
// note: pKi values for UniProt O43570 were reported in different studies
Observed Property: pKi

Solved cases (5 shown):
>  <Compound>
Nc1ccc(S(N)(=O)=O)cc1Br

>  <Tgt>
UniProt O43570

>  <pKi>
7.70

$$$$
>  <Compound>
CC(C)(C)n1c(=O)cc(Cl)[s+]1[O-] (stereo unspecified)

>  <Tgt>
UniProt O43570

>  <pKi>
7.27

$$$$
>  <Compound>
CCCCCCN(CCCCCC)CC(=O)N(CCC(=O)O)CCc1ccc(S(N)(=O)=O)cc1

>  <Tgt>
UniProt O43570

>  <pKi>
8.00

$$$$
>  <Compound>
CC(=O)c1cc2cc([N+](=O)[O-])c(Cl)cc2oc1=O

>  <Tgt>
UniProt O43570

>  <pKi>
5.19

$$$$
>  <Compound>
NS(=O)(=O)c1ccc(CCNC(=S)N[C@@H]2O[C@H](CO)[C@@H](O)[C@H](O)[C@H]2O)cc1

>  <Tgt>
UniProt O43570

>  <pKi>
8.01

$$$$

A. COc1ccccc1-c1noc(-c2csc(S(N)(=O)=O)c2)n1
B. COc1cc(S(N)(=O)=O)ccc1-c1noc(-c2ccsc2)n1
Which gives the smaller pKi number: A or B ? Answer with the label corresponding to your selection.
B
(B: 7.49, A: 8.06)

a. NS(=O)(=O)c1cccc(NC(=O)Nc2ccccc2)c1
b. COC(=O)CCNS(=O)(=O)NCc1ccc(F)cc1
Which gives the smaller pKi number: a or b ? Answer with the label corresponding to your selection.
b
(b: 7.13, a: 8.00)

* * *

pKi: −log10 of the molar value.
// note: pKi values for UniProtKB O43570 were reported in different studies
Observed Property: pKi

Solved cases (8 shown):
>  <Compound>
COC(=O)CCNS(=O)(=O)NCCC(=O)OC

>  <pKi>
4.15

$$$$
>  <Compound>
COc1c(C(C)=O)c(=O)oc2ccccc12

>  <pKi>
6.17

$$$$
>  <Compound>
NS(=O)(=O)c1ccc(-c2ccc(C(=O)c3ccccc3)cc2)cc1

>  <pKi>
8.13

$$$$
>  <Compound>
CC(=O)N1N=C(c2ccc(OS(N)(=O)=O)cc2)CC1c1ccc(F)cc1 (centres undefined)

>  <pKi>
7.93

$$$$
>  <Compound>
NS(=O)(=O)OCCCCCCCCOS(N)(=O)=O

>  <pKi>
8.10

$$$$
>  <Compound>
NCCCN(CCc1ccccc1)CC(=O)N(CCc1ccc(S(N)(=O)=O)cc1)Cc1ccc(F)cc1

>  <pKi>
9.22

$$$$
>  <Compound>
CC(C)(C)OC(=O)N(CCCCN(CCCNC(=O)C(F)(F)F)C(=O)OC(C)(C)C)CCCNC(=O)C(F)(F)F

>  <pKi>
3.76

$$$$
>  <Compound>
Oc1cc(F)ccc1F

>  <pKi>
3.22

$$$$

I. Cn1nc(Cc2ccccc2)c2c(=O)oc3ccccc3c21
II. CC(=O)N1N=C(c2ccc(OS(N)(=O)=O)cc2)CC1c1ccc(Cl)cc1Cl (centres undefined)
Just curious, which one has the larger pKi reading, I or II ? Answer with the label corresponding to your selection.
II
(II: 7.58, I: 6.46)
